# assay.target: T1, Cynomolgus monkey glycophorin A on Cynomolgus monkey red blood cells or red blood cell membranes (Cynomolgus monkey)
# T1 construct: whole, on cells; also called Cyno RBC; Cynomolgus monkey RBC membranes
# procedure.details: Fab on intact cyno RBC, unbound Fab by ELISA; 60 min after 200-fold dilution
value.kind: percentage of input antibody bound (%)
Enter your answer as a number in %; do not include the unit.

binder: TPP-7793, affinity matured 6C12 Fab (Fab, V domains shown, Tested as Fab) VH: EVQLVQSGAEVKKPGASVKVSCKASGYTFTRYTIHWVRQAPGQGLEWMGYINPSSGYTRYNPKFKGRVTMTRDKSTSTAYMELRSLRSDDTAVYYCWTGTRDYWGQGTTVTVSS VL: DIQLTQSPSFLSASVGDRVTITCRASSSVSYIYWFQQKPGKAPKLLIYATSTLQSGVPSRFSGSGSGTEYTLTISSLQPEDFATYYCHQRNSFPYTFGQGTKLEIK
value.kind: percentage of input antibody bound
value.measured: 51
--
binder: TPP-7781, affinity matured 6C12 Fab (Fab, V domains shown, Tested as Fab) VH: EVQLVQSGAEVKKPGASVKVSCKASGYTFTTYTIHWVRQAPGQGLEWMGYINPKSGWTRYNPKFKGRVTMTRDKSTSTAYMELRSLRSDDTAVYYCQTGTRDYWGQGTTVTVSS VL: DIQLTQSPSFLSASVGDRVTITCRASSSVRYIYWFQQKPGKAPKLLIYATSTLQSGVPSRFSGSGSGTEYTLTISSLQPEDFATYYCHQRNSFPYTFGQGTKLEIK
value.kind: percentage of input antibody bound
value.measured: 24
--
binder: TPP-7796, affinity matured 6C12 Fab (Fab, V domains shown, Tested as Fab) VH: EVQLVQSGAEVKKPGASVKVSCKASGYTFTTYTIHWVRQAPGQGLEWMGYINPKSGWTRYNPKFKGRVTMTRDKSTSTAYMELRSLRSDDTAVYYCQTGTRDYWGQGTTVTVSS VL: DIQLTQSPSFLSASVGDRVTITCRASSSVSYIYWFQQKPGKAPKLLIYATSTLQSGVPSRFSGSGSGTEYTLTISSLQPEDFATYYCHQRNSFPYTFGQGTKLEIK
value.kind: percentage of input antibody bound
value.measured: 7

Query: For the binder shown here, TPP-7783, affinity matured 6C12 Fab (Fab, V domains shown, Tested as Fab) VH: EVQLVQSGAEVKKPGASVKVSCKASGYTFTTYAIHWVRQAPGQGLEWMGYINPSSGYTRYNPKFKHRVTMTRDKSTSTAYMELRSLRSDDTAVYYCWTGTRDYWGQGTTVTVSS VL: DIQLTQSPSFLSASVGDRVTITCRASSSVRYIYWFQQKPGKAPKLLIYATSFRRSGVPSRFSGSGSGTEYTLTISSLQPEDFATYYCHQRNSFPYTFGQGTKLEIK , give the reported percentage of input antibody bound.
Reply: 64
